Tested on: CAKI-1
Test: NCI tumour cell line growth inhibition, 48 h
Calls of active or inactive are those of the source. Cut-off read from the data, not from the text of the source: active = GI50 up to about 1.1 µM and inactive = higher.
Measured attribute: GI50

Ask: What does the data say about its GI50? Entry: COc1cc(CNc2nc3c(N)cc(C(F)(F)F)cc3nc2-c2ccccc2)cc(OC)c1OC
Result: > 10 µM (inactive)

Ask: # repeat for NC(CCC(=O)NC(CSC(=O)N(O)c1ccc(Cl)cc1)C(=O)NCC(=O)O)C(=O)O (centres undefined)
Result: > 0.5 µM (active)

Ask: # repeat for CN(C)C(=O)C1CCN(Cc2c[nH]c3ccccc23)CC1
Result: > 100 µM (inactive)

Ask: # repeat for N=C(N)C(/N=N\c1ccccc1)C(=N)N (centres undefined)
Result: 38.4 µM (inactive)

Ask: # repeat for c1nc(N2CC2)c2cnn(C3CCCCO3)c2n1 (centres undefined)
Result: > 100 µM (inactive)

Ask: # repeat for COc1cc(OCc2ccc3nc(OC)c(OC)nc3c2)cc(OC)c1OC
Result: > 10 µM (inactive)

Ask: # repeat for CCOC(=O)c1ccc(N(CCOS(=O)(=O)c2ccc(C)cc2)CCOS(=O)(=O)c2ccc(C)cc2)cc1
Result: 4.94 µM (inactive)

Ask: # repeat for COc1ccc2c(c1)C(N)CC2=O (centres undefined)
Result: > 100 µM (inactive)

Ask: # repeat for CNC(=S)N/N=C/c1cccc(C)n1
Result: 47.6 µM (inactive)

Ask: # repeat for COc1cc(S(=O)(=O)Nc2nc(-c3ccc(/N=C/c4ccccc4O)cc3)cs2)ccc1Cl
Result: 60.4 µM (inactive)

Ask: # repeat for NS(=O)(=O)c1ccc(NC(=O)CC(=O)Nc2ccc(S(N)(=O)=O)cc2)cc1
Result: > 100 µM (inactive)

Ask: # repeat for CC(CCCC1SCC2NC(=O)NC21)C(=O)O (centres undefined)
Result: > 100 µM (inactive)

Ask: # repeat for C=C1CC(C/C=C(\C)CC2CC(=C)C(=O)O2)OC1=O (centres undefined)
Result: > 100 µM (inactive)

Ask: # repeat for C=C(C)C1CC2=C(O1)C(=O)c1cccc(O)c1C2=O (centres undefined)
Result: 0.764 µM (active)

Ask: # repeat for CCCSc1ccc2[nH]c(/N=C/c3ccccc3)cc2c1
Result: 19.4 µM (inactive)

Ask: # repeat for CCc1cccc(C(C)C)c1NC(=O)C(=O)C1C(=O)NC(=O)NC1=O
Result: > 100 µM (inactive)

Ask: # repeat for COC(=O)C1([C@@H]2C[C@@H](O)[C@]3(C)CC/C=C(\C)CCC[C@H](C)[C@H](O)[C@@H]2O3)CC1
Result: > 100 µM (inactive)

Ask: # repeat for COc1cccc2c1C(=O)c1c(O)c3c(c(O)c1C2=O)C[C@H](O)C[C@@H]3OC1CC(N)C(O)C(C)O1 (some centres undefined)
Result: 1.08 µM (active)

Ask: # repeat for C=CC(=O)NCNC(=O)C=C
Result: > 100 µM (inactive)

###

Provide the recorded GI50 for the entries that follow.
Tested on: MDA-MB-231
Experiment: NCI tumour cell line growth inhibition, 48 h
The source made the active and inactive calls. No stated cut-off is given here; in the data, active = GI50 up to about 1.1 µM and inactive = higher.

Ask: What does the data say about its GI50? Entry: CCOC(=O)Nc1nn[nH]c1Cl
Result: > 100 µM (inactive)

Ask: # repeat for CCOC(=O)/C=C(/C(=O)OCC)n1ccc(=O)n(Cc2cn(CCCCOC(C)=O)nn2)c1=O
Result: > 100 µM (inactive)

Ask: # repeat for NS(=O)(=O)c1nnc(NS(=O)(=O)c2ccccc2C(=O)O)s1
Result: > 100 µM (inactive)

Ask: # repeat for NC1=Nc2ccccc2Sc2cccc(F)c21
Result: > 100 µM (inactive)

Ask: # repeat for CC(NS(C)(=O)=O)c1ccccc1 (centres undefined)
Result: > 100 µM (inactive)

Ask: # repeat for COc1c(OC)c(OC)c(C(=O)/C=C/c2ccccc2)c(OC)c1OC
Result: 14.5 µM (inactive)

Ask: # repeat for C[C@]12CCC(=O)C(O)=C1CC[C@@H]1[C@@H]2CC[C@]2(C)C(=O)CC[C@@H]12
Result: > 100 µM (inactive)

Ask: # repeat for CNC(=S)N/N=C/c1cccc(C)n1
Result: 39.3 µM (inactive)

Ask: # repeat for CC(C)(C)c1ccc(-n2c3nc(=O)n(-c4ccccc4C(F)(F)F)c(=O)c-3cc3ccccc32)cc1
Result: 23.8 µM (inactive)
